Examples of molecules with documented melting point follow.

Cc1cc(-c2nc3ccccc3c(=O)n2-c2ccc(C(F)(F)F)cc2)cc(C)c1OCCO ... 160 to 161 °C
CC(=O)Nc1ccc(OC(C)=O)c(C)c1C ... 155 to 156 °C
Cc1onc(-c2ccc(Cl)c(Cl)c2)c1-c1ccc(S(N)(=O)=O)cc1 ... 66 to 71 °C

For reference, reported melting point for Cc1ccc(-c2ccccc2C(=O)NCCC#N)cc1 stands at 102 to 104 °C

The reported melting point of the molecule N#Cc1c2c(c3c(c1N1CCCCC1)Cc1ccccc1-3)-c1ccccc1C2 was 200 to 202 °C

Sample Cc1ccc(S(=O)(=O)N(C)c2ccc(Cl)cc2C(N)=O)cc1 ; melting point observed: 176 to 178 °C

Query CCOC(=O)c1cc2c(nc1C)C(CBr)CCCC2 (centres undefined) yields melting point of 50 to 51 °C

// sample CC(O)c1cc(S(N)(=O)=O)sc1S(=O)(=O)c1ccc(O)cc1 (centres undefined) , its melting point was 173 to 175 °C

Summary for this molecule, CCOC(=O)CC=Cc1ccc2ccccc2c1O : melting point is 83 to 84 °C

Recorded result, CN(C)C1(c2ccccc2)CCC(CC(=O)N2CCC(c3c[nH]c4ccccc34)C2)CC1 (centres undefined) , melting point: 98 to 100 °C

// melting point lookup, molecule = CCc1cccc(CC)c1NCc1n[nH]c(=S)n1C , result: 117 to 121 °C

Form field melting point, entry O=Cc1ccc(CN2C(=O)c3ccccc3C2=O)c(Cl)c1 : 123 to 126 °C

melting point for CCN(CC)c1ccc2nc3c4ccccc4c(=Nc4nc5ccc(OC)cc5s4)cc-3oc2c1 is 197 to 198 °C

melting point measured on O=Cc1ccc(NS(=O)(=O)c2ccccc2)cc1O = 150 to 157 °C

====

Listing: melting point of selected compounds

get_value(item= Cc1nc(C#N)ccc1O , readout=melting point) returns 201 to 205 °C

Sample CSc1ccc(CC2C(C)=Cc3cc(F)ccc32)cc1 (stereo unspecified) ; melting point observed: 58 to 59 °C

Just so you know, measured melting point for NC(=O)Nc1n[nH]c(-c2ccncc2)c1-c1ccc(F)cc1 came out at 224 to 225 °C

Noted for CCCC1(C)CC(C)c2ccc(O)c(C)c2O1 (stereo unspecified) : its melting point reads 60 °C

====

Measured melting point, listed per entry.

Please review the following examples before continuing.
O=C(c1cncc(Br)c1)N1CCOCC1 ... 49 to 51 °C
CCCCOC(=O)C1=C(C)NC(C)=C(C(=O)OC)C1c1cccc([N+](=O)[O-])c1 (centres undefined) ... 69 to 70 °C
Clc1ccc2cc(CBr)c3ccsc3c2c1 ... 144 to 146 °C

Proceeding to the next molecule to report its melting point.
// melting point lookup, molecule = CC(C)(C)CC(C)(C)C(CCC(=O)O)CC(=O)O (centres undefined) , result: 135 to 137 °C

====

Listing: melting point of selected molecules

Example entries and their recorded answers appear below.
CCNC(=O)N(CC)C(=O)c1nc(Cl)c(Cl)[nH]1 ... 146 °C
CCOC(=O)C(=CNc1cscc1OCC)C(=O)OCC ... 108 to 109 °C
COc1nc(Cl)nc(Nc2ccc(OC(=O)C(C)(C)Br)cc2)n1 ... 107 to 108 °C
NCc1ccc(Br)nc1 ... 57 to 58 °C
CCOc1cc(C(CS(C)(=O)=O)N2Cc3cccc(NC(=O)C4CC4)c3C2=O)ccc1OC(F)F (configuration not stated) ... 115 to 117 °C
O=C(O)CCCc1oc(-n2cnc3ccccc32)nc1-c1ccc(Cl)cc1 ... 199 to 200 °C

We now examine a further molecule.
Data point: COc1ccc(CCOc2ccnc(Cl)c2)cc1OC ; melting point = 116 to 117 °C

====

RESULT_TYPE: melting point

Cc1c(C)c2c(c(C)c1OCCCc1ccccc1)C(c1ccc(C(C)C)cc1)C(C)(C)O2 (stereo not drawn) ... 78 to 80 °C
COc1ccc(-c2cc(=O)c3c(OC)cc(OC)c(C4=CCN(C)CC4)c3o2)cc1 ... 179 to 181 °C

Alright, here's another compound for you.
get_value(item= CCCCC[C@@H](CNC(=O)Nc1c(N2CCOCC2)ncnc1N1CCOCC1)c1cccc2c1OCO2 , readout=melting point) returns 128 to 132 °C

====

// values below are reported melting point

Cn1c(CCNC2CCN(Cc3ccccc3)CC2)cc2ccccc21 ... 72 to 73 °C
CCOC(=O)C1=C(C)NC(C)=C(C(=O)OCCC#N)C1c1ccccc1/C=C/C(=O)OC(C)(C)C (centres undefined) ... 168 to 169 °C
Cc1c(CCCO)c2c(c(C)c1NC(=O)NCCO)C(c1ccc(C(C)C)cc1)CO2 (centres undefined) ... 153 to 154 °C
COC(=O)C1Cc2c(OC)cccc2N1S(=O)(=O)c1ccc(-c2ccc(F)cc2F)cc1 (centres undefined) ... 162 °C
Cn1cc(-c2nsc(Cl)n2)c2ccccc21 ... 93 to 94 °C

Form: molecule = CCNC(=O)[C@H](C)C[C@H](O)[C@H](CC1CCCCC1)NC(=O)[C@H](Cc1cscn1)NC(=O)OC(C)(C)C ; melting point = 179 to 181 °C

melting point reading for COC(=O)CC[C@H](NC(=O)c1c[nH]c(CCC2CNc3nc(NC(=O)C(C)(C)C)nc(O)c3C2)n1)C(=O)OC (some centres undefined) : 129 to 131 °C

====

RESULT_TYPE: melting point

Completed entries (count: 2):
Cc1nc(N2CCN(Cc3ccccc3)C2=O)sc1C(=O)NCc1ccccn1 ... 149 to 151 °C
BrCCCCCCCOc1nc(-c2ccccc2)c(-c2ccccc2)n1-c1ccccc1 ... 97 to 99 °C

For reference, reported melting point for N#Cc1ccc(NC(=S)NCc2ccncc2)cc1 stands at 169 °C

Quick note, melting point for CCNC(=O)c1cc(Oc2nn(C)c(C(F)(F)F)c2Cl)ccc1[N+](=O)[O-] landed at 130 °C

====

# Lookup of reported melting point keyed by entry

melting point reported for this molecule O=C1OCCC1Oc1ccc(C(F)(F)F)cc1[N+](=O)[O-] (centres undefined) : 128 to 129 °C

// CCCCCC(=O)c1c(C)n(C(=O)OC)c(=O)n1C(=O)OC : melting point value = 84 to 86 °C

The value of melting point measured for the molecule CSCCC(NC(=O)Nc1cccc(C)c1)C(=O)O (racemic) turned out to be 143 °C

The recorded melting point for entry COC(C)(C)C(C#N)=NOCc1coc(-c2ccc(F)cc2)n1 equals 75 to 77 °C

====

melting point by entry:

Below, each entry is followed by its recorded melting point result.
CCCCCC1CCc2c3c(c(F)c(F)c2O1)OC(C)C3 (stereo not drawn) ... 76 °C
COC(=O)c1ccccc1Nc1cccc(C(C)N(O)C(C)=O)c1Cl (stereo not drawn) ... 171 to 172 °C
O=C(NCc1ccc(C=NNO)cc1)C1Cc2ccccc2N1S(=O)(=O)c1ccc(-c2cccc(C(F)(F)F)c2)cc1 (stereo not drawn) ... 110 to 115 °C
COc1ccc(S(=O)(=O)N2C(=O)C(NCCC(=O)OC(C)(C)C)(c3ccccc3OC)c3cc(Cl)ccc32)c(OC)c1 (stereo not drawn) ... 175 °C
O=c1[nH]ncc2[nH]c(-c3ccc(OC(F)F)c(OC4CC4)c3)c(Cc3ccccc3F)c12 ... 202 to 204 °C

Kindly review the next compound as well.
The reported melting point of the compound O=C(NC1CCNC1)C12CC3CC(CC(C3)C1)C2 (stereo not drawn) was 186 to 188 °C

====

# melting point per entry

Completed entries (count: 8):
CN1C(=O)C(C)(C)C(=O)Nc2ccc(C#N)cc21 ... 250 to 251 °C
COc1cccc([Si](C)(C)COc2cc(C(C)(C)C)c(O)c(C(C)(C)C)c2)c1OC ... 94.5 to 96 °C
CC(C)OC(=O)Nc1cccc(-c2ccnc3c(C(=O)c4ccco4)cnn23)c1 ... 140 to 143 °C
COCCOc1ncccc1S(N)(=O)=O ... 102 to 103 °C
c1ccc2cc(CN3CCN(c4nccs4)CC3)ccc2c1 ... 83 to 84 °C
COc1cc(C)c(C)[nH]c1=O ... 215 to 219 °C
CCOc1ccnc(N2CCN(C(=O)c3ccccc3C=O)CC2)n1 ... 134 to 136 °C
CCOC(=O)C(Cc1ccccc1CCBr)(NC(C)=O)C(=O)OCC ... 86 to 86.5 °C

Record CCOC(=O)C(=C1SC=C(O)S1)S(C)(=O)=O . Reported melting point: 145 to 147 °C

O=C(O)Cc1ccc2c(c1)CCC(C(F)(F)F)N2 (stereo unspecified) has a reported melting point of 107 to 108 °C

For O=C1C(=Cc2cccc3ccccc23)CCc2cc(OCCn3ccnc3)ccc21 the molecule record lists melting point as 147 to 148 °C

Sample Cc1nc(C=Cc2nc3ccccc3c(=O)n2-c2ccccc2Cl)cs1 ; melting point observed: 219 to 221 °C

response.value for CN(CCCN1CCN(c2ccccc2C2CC2)CC1)c1nccc(C(N)=O)n1 (field: melting point) = 170 °C

Kindly note the recorded melting point for Cn1cc(C2=C(c3cn(CCCNS(C)(=O)=O)c4ccccc34)C(=O)NC2=O)c2ccccc21 , which is 135 to 138 °C

Entry CCCCCCCC(=O)Nc1ccc(O)c(C(=O)O)c1 ; melting point = 200 to 204 °C

For reference, reported melting point for CC(CC(=O)NO)c1cccc(Nc2ccccc2-c2n[nH]c(=S)o2)c1Cl (stereo unspecified) stands at 205 to 207 °C

Lookup result for CCOC(=O)c1ncn2c1CN(C)C(=O)c1ncccc1-2 ; measured melting point: 252 to 254 °C

melting point reported for this molecule CCOC(=O)C(=O)Nc1ccc(-n2ccnc2)cc1 : 177 to 180 °C

Given item CN1C(=O)CCC(C)(C)c2cc(Nc3ncc(Cl)c(Nc4ccccc4S(=O)(=O)N(C)C)n3)ccc21 , the value recorded as its melting point is 198 to 200 °C

For record Cc1cc(-n2cncn2)c2cccc(OCc3c(Cl)ccc(S(=O)(=O)N4CCC[C@H]4C(=O)NCC4CCN(C(=O)OC(C)(C)C)CC4)c3Cl)c2n1 the listed melting point is 94 °C

Reported melting point ( CN(C)C(=O)c1nc(-c2ccccc2)nc2c1c1ccc(F)cc1n2C ) = 229 to 231 °C

Origin of measurements: a melting point compilation (Tetko et al.; mined from patent text by program, amines drawn as free bases though some values may be those of a salt)
